All figures here come from patent US9662339B2.

SYSTEM_UNDER_TEST: human LTA4 hydrolase (Homo sapiens (Human), UniProt P09960)
Sequence (P09960 whole entry): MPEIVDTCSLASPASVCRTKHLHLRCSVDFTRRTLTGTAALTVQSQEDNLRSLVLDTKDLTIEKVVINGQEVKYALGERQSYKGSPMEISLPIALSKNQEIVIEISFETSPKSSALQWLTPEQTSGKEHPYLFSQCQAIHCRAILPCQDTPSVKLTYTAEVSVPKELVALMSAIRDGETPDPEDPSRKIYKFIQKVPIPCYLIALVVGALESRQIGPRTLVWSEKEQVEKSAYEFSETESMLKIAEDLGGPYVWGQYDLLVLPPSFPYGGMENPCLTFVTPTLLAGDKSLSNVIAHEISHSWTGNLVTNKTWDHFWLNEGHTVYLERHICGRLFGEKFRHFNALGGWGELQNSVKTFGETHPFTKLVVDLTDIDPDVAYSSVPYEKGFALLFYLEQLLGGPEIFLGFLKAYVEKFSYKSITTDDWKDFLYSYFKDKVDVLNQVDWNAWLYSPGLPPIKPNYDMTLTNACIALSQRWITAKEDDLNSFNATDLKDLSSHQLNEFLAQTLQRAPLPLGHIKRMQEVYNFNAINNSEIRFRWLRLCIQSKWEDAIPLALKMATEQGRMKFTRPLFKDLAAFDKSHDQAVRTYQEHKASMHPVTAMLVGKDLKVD
pIC50: −log10 of the molar value.
Would you please tag the item 1 when its pIC50 is 9 or above, and 0 when it is below?

{"COMPOUND": "c1cnc2c(c1)OCC(c1ccc(CN3CCCC3)cc1)O2 (racemic) [Example 15]", "ASSIGNED_CLASS": 1}
{"COMPOUND": "COCCN(C)Cc1ccc(C2COc3ccccc3O2)cc1 (stereo not shown) [Example 33]", "ASSIGNED_CLASS": 0}
{"COMPOUND": "O=S1(=O)CCN(Cc2ccc(C3COc4ccccc4O3)cc2)CC1 (stereo not shown) [Example 7]", "ASSIGNED_CLASS": 0}
{"COMPOUND": "CC(=O)N1CCN(Cc2ccc(C3COc4ccccc4O3)cc2)CC1 (stereo not shown) [Example 11]", "ASSIGNED_CLASS": 0}
{"COMPOUND": "OC1CCN(Cc2ccc([C@@H]3COc4ccccc4O3)cc2)CC1 [Example 193]", "ASSIGNED_CLASS": 0}
{"COMPOUND": "c1cncc(CNCc2ccc(C3COc4ccccc4O3)cc2)c1 (stereo not shown) [Example 54]", "ASSIGNED_CLASS": 0}
{"COMPOUND": "O=C1NC(=O)C2(CCN(Cc3ccc(C4COc5ccccc5O4)cc3)CC2)N1 (stereo not shown) [Example 35]", "ASSIGNED_CLASS": 1}
{"COMPOUND": "O=C(CNCc1ccc(C2COc3ccccc3O2)cc1)N1CCCC1 (stereo not shown) [Example 12]", "ASSIGNED_CLASS": 0}
{"COMPOUND": "c1ccc2c(c1)OCC(c1ccc(CNCC3CC3)cc1)O2 (stereo not shown) [Example 43]", "ASSIGNED_CLASS": 0}
{"COMPOUND": "CC1(C)CCN(Cc2ccc(C3COc4ccccc4O3)cc2)CC1 (stereo not shown) [Example 3]", "ASSIGNED_CLASS": 0}
{"COMPOUND": "c1ccc2c(c1)OC[C@@H](c1ccc(CN3CCCC3)cc1)O2 [Example 197]", "ASSIGNED_CLASS": 0}
{"COMPOUND": "c1ccc2c(c1)OCC(c1ccc(CN3CCCC3)cc1)O2 (racemic) [Example 1]", "ASSIGNED_CLASS": 1}

###

SYSTEM_UNDER_TEST: human LTA4 hydrolase (Homo sapiens (Human), UniProt P09960)
EXPERIMENTAL_READOUT: log10(IC50) (log10 of the value in nM)

{"COMPOUND": "CN(C)C(=O)CC1CCN(Cc2ccc(C3COc4ccccc4O3)cc2)CC1 (centres unmarked) [Example 38]", "QUANTITATIVE_RESULT": 0.06}
{"COMPOUND": "c1ccc2c(c1)OCC(c1ccc(CN3CCOCC3)cc1)O2 (centres unmarked) [Example 2]", "QUANTITATIVE_RESULT": 0.39}
{"COMPOUND": "O=C1NCCC12CCN(Cc1ccc([C@H]3COc4ccccc4O3)cc1)CC2 [Example 194]", "QUANTITATIVE_RESULT": -0.82}
{"COMPOUND": "O=C(NCCO)C1CCN(Cc2ccc(C3COc4ccccc4O3)cc2)CC1 (racemic) [Example 52]", "QUANTITATIVE_RESULT": -0.12}
{"COMPOUND": "CC(C)(C)NCc1ccc(C2COc3ccccc3O2)cc1 (centres unmarked) [Example 23]", "QUANTITATIVE_RESULT": 0.72}
